I'd appreciate it if you could supply Pre-emergence herbicidal damage score, ZEAMX values for the items below.
System: a variety of test species
assay: Pre-emergence herbicidal activity (glasshouse, sprayed one day after sowing, evaluated after 13 days)
Assay type: in vivo
condition parameters: ZEAMX, application pre-emergence, rate 1000 g/Ha, scale 0-5
# output: bare number, no unit

# value lookup — system a variety of test species, readout Pre-emergence herbicidal damage score, ZEAMX, item CC1=C(Cl)C(=O)N(c2cc(C(C)(C)C)on2)C1OC(=O)C(C)(C)C (stereo not drawn)
1

# value lookup — system a variety of test species, readout Pre-emergence herbicidal damage score, ZEAMX, item CCCCC(C)(C)c1cc(N2C(=O)C(Cl)=C(C)C2O)no1 (stereo not drawn)
1

# value lookup — system a variety of test species, readout Pre-emergence herbicidal damage score, ZEAMX, item CC1=C(Cl)C(=O)N(c2noc(C(C)(C)C)c2C#N)C1
3

# value lookup — system a variety of test species, readout Pre-emergence herbicidal damage score, ZEAMX, item COC1=C(C)C(O)N(c2cc(C(C)(C)C#N)on2)C1=O (stereo not drawn)
3

# value lookup — system a variety of test species, readout Pre-emergence herbicidal damage score, ZEAMX, item CCCC1=C(Cl)C(=O)N(c2noc(C(C)C)c2C#N)C1O (stereo not drawn)
0

# value lookup — system a variety of test species, readout Pre-emergence herbicidal damage score, ZEAMX, item CCC1=C(Cl)C(=O)N(c2noc(C(C)(C)CC)c2C#N)C1O (stereo not drawn)
3

# value lookup — system a variety of test species, readout Pre-emergence herbicidal damage score, ZEAMX, item CCC1=C(Cl)C(=O)N(c2noc(C(C)(C)C)c2C#N)C1O (stereo not drawn)
4

# value lookup — system a variety of test species, readout Pre-emergence herbicidal damage score, ZEAMX, item CCC1=C(Cl)C(=O)N(c2noc(C(C)C)c2C#N)C1O (stereo not drawn)
3

# value lookup — system a variety of test species, readout Pre-emergence herbicidal damage score, ZEAMX, item CC1=C(Cl)C(=O)N(c2noc(C(C)(C)C)c2Cl)C1O (stereo not drawn)
2

# value lookup — system a variety of test species, readout Pre-emergence herbicidal damage score, ZEAMX, item CC(C)(C)c1cc(N2C(=O)C(Cl)=C(C3CC3)C2O)no1 (stereo not drawn)
2

# value lookup — system a variety of test species, readout Pre-emergence herbicidal damage score, ZEAMX, item COCC(C)(C)c1cc(N2C(=O)C(C)=C(OC)C2O)no1 (stereo not drawn)
4

# value lookup — system a variety of test species, readout Pre-emergence herbicidal damage score, ZEAMX, item COCC(C)(C)c1cc(N2C(=O)C(Br)=C(C)C2O)no1 (stereo not drawn)
1

# value lookup — system a variety of test species, readout Pre-emergence herbicidal damage score, ZEAMX, item COC1=C(C)C(=O)N(c2cc(C(C)(C)C)on2)C1O (stereo not drawn)
1

# value lookup — system a variety of test species, readout Pre-emergence herbicidal damage score, ZEAMX, item CC(C)(C)CNC1=C(Cl)C(=O)N(c2cc(C(C)(C)C)on2)C1O (stereo not drawn)
0

# value lookup — system a variety of test species, readout Pre-emergence herbicidal damage score, ZEAMX, item CC1=C(Cl)C(=O)N(c2cc(C(C)(C)C)on2)C1OC(=O)c1ccno1 (stereo not drawn)
3

# value lookup — system a variety of test species, readout Pre-emergence herbicidal damage score, ZEAMX, item CC1=C(Cl)C(=O)N(c2noc(C(C)C)c2C#N)C1
2

# value lookup — system a variety of test species, readout Pre-emergence herbicidal damage score, ZEAMX, item CCC(C)(CC#N)c1cc(N2C(=O)C(Cl)=C(C)C2O)no1 (stereo not drawn)
5

# value lookup — system a variety of test species, readout Pre-emergence herbicidal damage score, ZEAMX, item CC1=C(Cl)C(=O)N(c2cc(C3(C)CC3)on2)C1O (stereo not drawn)
3

# value lookup — system a variety of test species, readout Pre-emergence herbicidal damage score, ZEAMX, item CC1=C(Cl)C(=O)N(c2cc(C(C)(C)C)on2)C1OC(=O)SCC(C)C (stereo not drawn)
0

# value lookup — system a variety of test species, readout Pre-emergence herbicidal damage score, ZEAMX, item CC1=C(Cl)C(=O)N(c2cc(C(C)(C)C)on2)C1OC(=O)Oc1ccccc1 (stereo not drawn)
3

# value lookup — system a variety of test species, readout Pre-emergence herbicidal damage score, ZEAMX, item CCC(=O)OC1C(C)=C(Cl)C(=O)N1c1cc(C(C)(C)C)on1 (stereo not drawn)
3
